- System: HIV-1 based replication-defective lentiviral particles
- TEST DETAILS: microbe, parasite or virus in culture
- Type: cell-based
- ASSAY SETUP: Human immunodeficiency virus 1, CEM-SS, 72 h
Recorded EC50 by entry

# annotated cases, reported EC50 shown
- COMPOUND: "Cc1cn([C@H]2C[C@H](N=[N+]=[N-])[C@@H](CO)O2)c(=O)[nH]c1=O [AZT, 3′-Azido-2′,3′-dideoxythymidine, reference compound]"
  ASSAY VALUE: "0.0122 µM"
- COMPOUND: "CC1(C)O[C@@H]2[C@H](O1)[C@@H](CO)O[C@H]2n1cc(Br)c(=O)[nH]c1=O"
  ASSAY VALUE: "> 30 µM"
- COMPOUND: "CC1(C)O[C@@H]2[C@H](O1)[C@@H](CO)O[C@H]2n1cc(I)c(=O)[nH]c1=O"
  ASSAY VALUE: "13.1 µM"
- COMPOUND: "Cc1cn([C@@H]2O[C@H](CO)[C@H]3OC(C)(C)O[C@H]32)c(=O)[nH]c1=O"
  ASSAY VALUE: "> 30 µM"

Query :: Please tell me: EC50 of `CC1(C)O[C@@H]2[C@H](O1)[C@@H](CO)O[C@H]2n1ccc(=O)[nH]c1=O` , system HIV-1 based replication-defective lentiviral particles?
Result :: > 30 µM

Query :: Please tell me: EC50 of `CC1(C)O[C@@H]2[C@H](O1)[C@@H](CO)O[C@H]2n1cc(Cl)c(=O)[nH]c1=O` , system HIV-1 based replication-defective lentiviral particles?
Result :: > 30 µM
